measuredOn: SpCyk3
testName: SPOT peptide array binding signal intensity (averaged, normalized) (arbitrary units (background-subtracted, floor 0; scale differs between SH3 domains)); higher = stronger binding of the SH3 domain to the peptide
Record form. Attribute: SPOT peptide array binding signal intensity. Fill in for each entry.

Request: Specify reported SPOT peptide array binding signal intensity for the binder shown: TKPTPPPKPSHLKPK
Result: ≤ 0

Request: Specify reported SPOT peptide array binding signal intensity for the binder shown: QDKEGIPPDQQRLIF
Result: ≤ 0

Request: Specify reported SPOT peptide array binding signal intensity for the binder shown: VQPTAAPATPPRHIS
Result: ≤ 0
